B1: F1*; the commonest letter at each place (parent)
chain: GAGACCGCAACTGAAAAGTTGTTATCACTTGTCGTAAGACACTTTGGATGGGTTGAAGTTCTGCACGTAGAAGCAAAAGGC

Variants of: B1
Assay: fraction ligated after 30 min (ligated reads / total reads); higher = more ligase activity
Conditions: with F1*sub RNA substrate (template-directed ligation), 42 °C
reported.endpoint: fraction ligated
# output: bare number, no unit

Exam item: Any idea what fraction ligated was measured for C42T A56G ?
Marked response: 0.821

Exam item: Suppose we examine the variant T32C A37T ; what fraction ligated value has been reported?
Marked response: 0.78

Exam item: For A24T T29A , what is its reported fraction ligated?
Marked response: 0.789

Exam item: Which fraction ligated value belongs to C33T A48C ?
Marked response: 0.789

Exam item: So what's the measured fraction ligated for this one? T23G T45C
Marked response: 0.781
